# method_summary: Elimination experiment: monoPAP mixture by IV injection, analytes in whole blood
# Type: in vivo, Sprague-Dawley rats
# measurement_conditions: monoPAP IV dose; whole blood
readout_kind: Cmax (ng/g)

molecule: O=C(O)C(F)(F)C(F)(F)C(F)(F)C(F)(F)C(F)(F)C(F)(F)C(F)(F)C(F)(F)C(F)(F)F [PFDA, perfluorodecanoate]
data_value: 0.93
--
molecule: O=C(O)C(F)(F)C(F)(F)C(F)(F)C(F)(F)C(F)(F)C(F)(F)C(F)(F)C(F)(F)F [PFNA, perfluorononanoate]
data_value: 2.3
--
molecule: O=C(O)C(F)(F)C(F)(F)C(F)(F)C(F)(F)C(F)(F)F
data_value: 5.6
--
molecule: O=C(O)C(F)(F)C(F)(F)C(F)(F)C(F)(F)F
data_value: 2.1
--
molecule: O=C(O)C(F)(F)C(F)(F)C(F)(F)F
data_value: 7.3

* * *

# method_summary: Uptake experiment: diPAP mixture by oral gavage, analytes in whole blood
# Format: in vivo, Sprague-Dawley rats
# measurement_conditions: diPAP gavage dose; whole blood; mean ± SE; values in parentheses < LOQ but > LOD

compound: O=C(O)C(F)(F)C(F)(F)C(F)(F)F [PFBA, perfluorobutanoic acid]
unit_label: ng/g
Cmax: 3.8
--
compound: O=C(O)C(F)(F)C(F)(F)C(F)(F)C(F)(F)C(F)(F)C(F)(F)C(F)(F)C(F)(F)F [PFNA, perfluorononanoate]
unit_label: ng/g
Cmax: 6.4
--
compound: O=C(O)C(F)(F)C(F)(F)C(F)(F)C(F)(F)C(F)(F)F [PFHxA, perfluorohexanoic acid]
unit_label: ng/g
Cmax: 10
--
compound: O=C(O)C(F)(F)C(F)(F)C(F)(F)C(F)(F)C(F)(F)C(F)(F)C(F)(F)C(F)(F)C(F)(F)F [PFDA, perfluorodecanoate]
unit_label: ng/g
Cmax: 3.6

* * *

# method_summary: Uptake experiment: diPAP mixture by oral gavage, analytes in whole blood
# Type: in vivo, Sprague-Dawley rats
# measurement_conditions: diPAP gavage dose; whole blood
The molecules listed here are annotated with their Tmax.
readout_kind: Tmax (day days)

molecule: O=C(O)C(F)(F)C(F)(F)C(F)(F)C(F)(F)C(F)(F)C(F)(F)C(F)(F)C(F)(F)C(F)(F)F [PFDA, perfluorodecanoate]
unit_label: day days
data_value: 1

molecule: O=C(O)C(F)(F)C(F)(F)C(F)(F)F
unit_label: day days
data_value: 1

* * *

# method_summary: Elimination experiment: monoPAP mixture by IV injection, analytes in whole blood
# Assay type: in vivo, Sprague-Dawley rats
# measurement_conditions: after monoPAP IV dosing
Entries annotated with measured Detection in blood (time points)

mol_smiles: O=C(O)CC(F)(F)C(F)(F)C(F)(F)C(F)(F)C(F)(F)C(F)(F)F
Detection in blood (time points) (hr postdosing): 2

mol_smiles: O=C(O)CC(F)(F)C(F)(F)C(F)(F)C(F)(F)F
Detection in blood (time points) (hr postdosing): 2

* * *

# method_summary: Elimination experiment: diPAP mixture by IV injection, analytes in whole blood
# Assay type: in vivo, Sprague-Dawley rats
# measurement_conditions: diPAP IV dose; whole blood
Tmax values by entry

molecule: O=C(O)C(F)(F)C(F)(F)C(F)(F)C(F)(F)C(F)(F)C(F)(F)C(F)(F)C(F)(F)C(F)(F)F [PFDA, perfluorodecanoate]
Tmax: 2 days
--
molecule: O=C(O)C(F)(F)C(F)(F)C(F)(F)F
Tmax: 1 day days
--
molecule: O=C(O)C(F)(F)C(F)(F)C(F)(F)C(F)(F)F
Tmax: 0.083 days
--
molecule: O=C(O)C(F)(F)C(F)(F)C(F)(F)C(F)(F)C(F)(F)C(F)(F)C(F)(F)C(F)(F)F [PFNA, perfluorononanoate]
Tmax: 15 days
--
molecule: O=C(O)C(F)(F)C(F)(F)C(F)(F)C(F)(F)C(F)(F)F
Tmax: 1 day days

* * *

# maps each entry to its Detection in blood (time points)
# method_summary: Uptake experiment: diPAP mixture by oral gavage, analytes in whole blood
# Type: in vivo, Sprague-Dawley rats
# measurement_conditions: after diPAP oral gavage
readout_kind: Detection in blood (time points)

compound: O=C(O)CC(F)(F)C(F)(F)C(F)(F)C(F)(F)F [4:2 FTCA]
data_value: 6 hr postdosing, but in only one animal
//
compound: O=C(O)CC(F)(F)C(F)(F)C(F)(F)C(F)(F)C(F)(F)C(F)(F)F [6:2 FTCA]
data_value: 6 hr postdosing, but in only one animal
//
compound: O=C(O)CC(F)(F)C(F)(F)C(F)(F)C(F)(F)C(F)(F)C(F)(F)C(F)(F)C(F)(F)F [8:2 FTCA]
data_value: 6 hr postdosing, but in only one animal
